Tested on: TGF-β-stimulated SMAD3 phosphorylation in BEAS-2B cells
Experiment: Cellular ALK5 potency assay, inhibition of TGF-β stimulated pSMAD3 formation in BEAS-2B cells
Type: cell-based
Conditions: Homo sapiens, pSMAD3, TGF-β 10 ng/mL, read-out: BEAS2B pIC50 (converted)
Would you kindly list IC50 for each of these molecules?

Study these solved cases before continuing.
[[record]]
molecule = "Cc1cccc(-c2nccc(Nc3ccnc(Nc4ccc(CN)cc4)n3)n2)n1"
assay_endpoint = "IC50"
reported_value = "25.1 to 158 nM"

[[record]]
molecule = "Cc1cccc(-c2nccc(Nc3ccnc(Nc4ccc(C(=O)OC[C@H]5CNCCO5)nc4)n3)n2)n1"
assay_endpoint = "IC50"
reported_value = "200 to 1260 nM"


For every listed record, write down its IC50.
1. Cc1cccc(-c2nccc(Nc3ccnc(Nc4nc(C(=O)NC5(CO)CCNC5)cs4)n3)n2)n1 (centres unmarked)
2. Cc1cccc(-c2nccc(Nc3ccnc(Nc4ncc(C(=O)OC[C@H]5CCCN5)s4)n3)n2)n1
3. Cc1cccc(-c2nccc(Nc3ccnc(Nc4ccc(-c5cn6c(n5)CNCC6)cc4)n3)n2)n1
4. COC(=O)C1CCCN(c2ccc(Nc3nccc(Nc4ccnc(-c5cccc(C)n5)n4)n3)cc2)C1 (centres unmarked)
5. Cc1cccc(-c2nccc(Nc3ccnc(Nc4ccc(NC(=O)C5CCNCC5)c(C)c4)n3)n2)n1

Given back:
1: 25.1 to 158 nM; 2: 25.1 to 158 nM; 3: 25.1 to 158 nM; 4: 25.1 to 158 nM; 5: ≤ 20 nM

Asked: For the molecule Cc1cccc(-c2nccc(Nc3ccnc(Nc4csc(C(=O)OC[C@@H]5CCCCN5)c4)n3)n2)n1 , what IC50 is on record?
Given back: 25.1 to 158 nM

###

Molecular target: recombinant human ALK5 (TGF-βR1) protein (Homo sapiens, UniProt P36897)
Sequence (P36897 34-503): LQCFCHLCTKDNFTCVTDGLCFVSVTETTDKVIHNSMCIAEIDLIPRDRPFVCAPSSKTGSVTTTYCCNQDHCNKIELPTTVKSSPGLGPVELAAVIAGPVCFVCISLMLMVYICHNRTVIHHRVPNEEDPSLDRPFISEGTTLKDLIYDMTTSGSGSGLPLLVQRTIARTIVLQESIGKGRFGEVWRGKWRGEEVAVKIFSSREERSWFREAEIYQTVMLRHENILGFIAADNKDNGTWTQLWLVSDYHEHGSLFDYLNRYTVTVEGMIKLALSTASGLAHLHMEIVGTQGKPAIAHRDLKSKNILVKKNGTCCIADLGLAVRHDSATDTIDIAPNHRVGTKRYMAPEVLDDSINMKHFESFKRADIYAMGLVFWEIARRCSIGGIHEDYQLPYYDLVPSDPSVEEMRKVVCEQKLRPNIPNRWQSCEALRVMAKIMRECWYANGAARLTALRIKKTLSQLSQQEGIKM
Assay: Biochemical ALK5 (TGF-βR1) assay to measure pKi (LANCE Ultra ULight kinase assay)
Conditions: apparent pKi, converted from pIC50 by Cheng-Prusoff
pKi: −log10 of the molar value.
ASSAY ENDPOINT: pKi

Study these solved cases before continuing.
[[record]]
query_smiles = "Cc1cccc(-c2nccc(Nc3ccnc(Nc4ccc(S(N)(=O)=O)cc4)n3)n2)n1"
reported_value = "9.50 to 10.40"

[[record]]
query_smiles = "Cc1cccc(-c2nccc(Nc3ccnc(Nc4ccc(-c5cn6c(n5)CNCC6)cc4)n3)n2)n1"
reported_value = "9.50 to 10.40"

[[record]]
query_smiles = "Cc1cccc(-c2nccc(Nc3ccnc(Nc4ccc(N[C@H]5CCNC5)cc4)n3)n2)n1"
reported_value = "9.50 to 10.40"


For every listed record, write down its pKi.
1. Cc1cccc(-c2nccc(Nc3ccnc(Nc4ccc(CN5CC(C)(CO)C5)cc4)n3)n2)n1
2. Cc1cccc(-c2nccc(Nc3ccnc(Nc4nc(CN(C)C5CNC5)cs4)n3)n2)n1
3. CNC1CCN(c2ccc(Nc3nccc(Nc4ccnc(-c5cc(O)ccc5C)n4)n3)cc2)CC1
4. Cc1cccc(-c2nccc(Nc3ccnc(Nc4ccc(Cl)c(CN5CCN(C)CC5)c4)n3)n2)n1
5. Fc1ccc(Cl)cc1-c1nccc(Nc2ccnc(Nc3ccc(N4CCC(N5CCCC5)CC4)cc3)n2)n1

Given back:
["≥ 10.50", "8.50 to 9.40", "8.50 to 9.40", "9.50 to 10.40", "9.50 to 10.40"]
